run.description: Pharmacokinetic measurement in mouse, single sc dose 30 nmol/kg, plasma ELISA
test.context: single sc dose 30 nmol/kg
Provide the reported Terminal t1/2 of each item.
The reply should contain only the number, in h.

Need Terminal t1/2 of MLC004: fusion polypeptide SEQ ID NO: 251 conjugated with Moiety A at 26K of GLP-1 (conjugate, Moiety A conjugated at K26) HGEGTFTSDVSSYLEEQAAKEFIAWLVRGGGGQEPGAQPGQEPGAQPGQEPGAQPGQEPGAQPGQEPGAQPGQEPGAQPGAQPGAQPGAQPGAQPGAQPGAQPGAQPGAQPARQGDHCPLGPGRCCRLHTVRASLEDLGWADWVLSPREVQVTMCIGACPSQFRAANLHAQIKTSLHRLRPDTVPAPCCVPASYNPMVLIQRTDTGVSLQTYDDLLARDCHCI , thanks. 7.4

Using the record for MLC008: fusion polypeptide SEQ ID NO: 255 conjugated with Moiety A at 6K of Linker (conjugate, Moiety A conjugated at linker K6) HGEGTFTSDVSSYLEEQAAREFIAWLVRGGGGQEPGKEPGQEPGQEPGQEPGQEPGQEPGQEPGAQPGAQPARQGDHCPLGPGRCCRLHTVRASLEDLGWADWVLSPREVQVTMCIGACPSQFRAANLHAQIKTSLHRLRPDTVPAPCCVPASYNPMVLIQRTDTGVSLQTYDDLLARDCHCI , report its Terminal t1/2. 4.2
